Where these numbers come from: patent US7064139B2

tested on: HIV-2 (ROD); test: Inhibition of HIV-2 syncytium formation in CEM cells; assay type: cell-based; conditions: protection of CEM cells against virus-induced cytopathicity at the concentration in the previous column
Experimental endpoint: HIV-2 % Protection (%)

>>> measured_value("Cc1cc([N+](=O)[O-])ccc1CS(=O)(=O)c1c(C)ccc[n+]1[O-]")
0.0
>>> measured_value("Cc1ccc(C)c(C(Cl)S(=O)(=O)c2ccccn2)c1 (centres unmarked)")
0.0
>>> measured_value("Cc1ccc(C)c(C(C)Sc2cc(C)c3ccccc3n2)c1 (centres unmarked)")
0.0
>>> measured_value("Cc1ccc(C)c(C(Cl)S(=O)(=O)c2c(Cl)ccc[n+]2[O-])c1 (centres unmarked)")
0.0
>>> measured_value("Cc1ccc(C)c(C(C)[S+]([O-])c2cccc[n+]2[O-])c1 (centres unmarked)")
0.0
>>> measured_value("Cc1cc(CS(=O)(=O)c2cccc[n+]2[O-])c(C)cc1CS(=O)(=O)c1cccc[n+]1[O-]")
37.5
>>> measured_value("COc1cc(CS(=O)(=O)c2cccc[n+]2[O-])cc(OC)c1OC")
37.5
>>> measured_value("CC(c1ccccc1)[S+]([O-])c1cccc[n+]1[O-] (centres unmarked)")
0.0
>>> measured_value("O=S(=O)(Cc1ccc(CS(=O)(=O)c2cccc[n+]2[O-])cc1)c1cccc[n+]1[O-]")
37.5
>>> measured_value("O=S(=O)(c1ccc(Cl)c[n+]1[O-])C(Cl)c1ccccc1 (centres unmarked)")
0.0
>>> measured_value("O=S(=O)(Cc1cccc(Br)c1)c1cccc[n+]1[O-]")
37.5
>>> measured_value("O=S(=O)(Cc1c2ccccc2cc2ccccc12)c1cccc[n+]1[O-]")
0.0
>>> measured_value("Cc1ccc2ccccc2c1CS(=O)(=O)c1cccc[n+]1[O-]")
37.5
>>> measured_value("Cc1ccc(C)c(C(C)S(=O)(=O)c2ccccn2)c1 (centres unmarked)")
0.0
>>> measured_value("Cc1ccc(CS(=O)(=O)c2c(C)ccc[n+]2[O-])c(C)c1")
37.5
>>> measured_value("Cc1ccc(C)c(C(C)S(=O)(=O)c2ccc(C)c[n+]2[O-])c1 (centres unmarked)")
0.0
>>> measured_value("Cc1ccc[n+]([O-])c1[S+]([O-])Cc1c(Cl)cccc1Cl (centres unmarked)")
0.0
>>> measured_value("Cc1ccc(C)c(CS(=O)(=O)c2c(C)ccc[n+]2[O-])c1")
0.0
>>> measured_value("[O-][n+]1ccccc1SCc1ccccc1")
0.0
>>> measured_value("Cc1ccc[n+]([O-])c1S(=O)(=O)C(C)c1ccccc1Cl (centres unmarked)")
0.0
>>> measured_value("COc1ccc(C(c2ccccc2)S(=O)(=O)c2cccc[n+]2[O-])cc1OC (centres unmarked)")
6.0
>>> measured_value("Cc1ccc(C)c(C[S+]([O-])c2cccc[n+]2[O-])c1C (centres unmarked)")
0.0
>>> measured_value("O=[N+]([O-])c1ccccc1CS(=O)(=O)c1cccc[n+]1[O-]")
37.5
>>> measured_value("[O-][n+]1cc(Cl)ccc1SCc1ccccc1")
0.0
>>> measured_value("Cc1ccc(C)c(C(C)[S+]([O-])c2ccccn2)c1 (centres unmarked)")
0.0
>>> measured_value("[O-][n+]1cccc(Cl)c1SCc1ccccc1")
0.0

* * *

tested on: Davis strain CMV; assay: Reduction of CMV-induced cytopathicity in HEL cells; assay type: cell-based, human cytomegalovirus (HCMV); conditions: HEL cells, virus-induced cytopathicity after seven days
Collected Antiviral EC50 (ug/ml) Davis strain CMV values appear next to each entry.
Experimental endpoint: Antiviral EC50 (ug/ml) Davis strain CMV

>>> measured_value("O=S(=O)(Cc1cccc(F)c1)c1cccc[n+]1[O-]")
">20 µg/mL"
>>> measured_value("COc1ccc(C)cc1CSc1cccc[n+]1[O-]")
">50 µg/mL"
>>> measured_value("O=[N+]([O-])c1ccccc1CS(=O)(=O)c1cccc[n+]1[O-]")
">5 µg/mL"
>>> measured_value("CN1CCCCC1CSc1cccc[n+]1[O-] (racemic)")
">50 µg/mL"
>>> measured_value("Cc1ccc[n+]([O-])c1S(=O)(=O)Cc1ccccc1")
">20 µg/mL"
>>> measured_value("O=[N+]([O-])c1ccc(CS(=O)(=O)c2cccc[n+]2[O-])c(Cl)c1")
">5 µg/mL"
>>> measured_value("Cc1ccc(C)c(C(C)S(=O)(=O)c2c(Cl)ccc[n+]2[O-])c1 (racemic)")
">5 µg/mL"

* * *

Overview of recorded Antiviral EC50 (ug/ml) Davis strain CMV for various molecules
test system: Davis strain CMV; assay: Reduction of CMV-induced cytopathicity in HEL cells; format: cell-based, human cytomegalovirus (HCMV); conditions: HEL cells, virus-induced cytopathicity after seven days
Experimental endpoint: Antiviral EC50 (ug/ml) Davis strain CMV

>>> measured_value("O=S(=O)(Cc1ccc(F)cc1)c1cccc[n+]1[O-]")
">20 µg/mL"
>>> measured_value("N#Cc1ccccc1CS(=O)(=O)c1cccc[n+]1[O-]")
">5 µg/mL"
>>> measured_value("O=S(=O)(Cc1ccc2ccccc2c1)c1cccc[n+]1[O-]")
">5 µg/mL"

* * *

Recorded Antiviral EC50 (ug/ml) Davis strain CMV by entry
tested on: Davis strain CMV; test: Reduction of CMV-induced cytopathicity in HEL cells; format: cell-based, human cytomegalovirus (HCMV); conditions: HEL cells, virus-induced cytopathicity after seven days
Experimental endpoint: Antiviral EC50 (ug/ml) Davis strain CMV

>>> measured_value("[O-][n+]1ccccc1SCc1ccccc1")
">50 µg/mL"
>>> measured_value("O=S(=O)(Cc1ccccc1)c1ccccn1")
">50 µg/mL"
>>> measured_value("Cc1ccc(C)c(C(Cl)S(=O)(=O)c2cccc(C)[n+]2[O-])c1 (stereo not shown)")
">20 µg/mL"
>>> measured_value("N#Cc1ccc(CS(=O)(=O)c2cccc[n+]2[O-])cc1")
">20 µg/mL"

* * *

// values below are reported EC50
tested on: HIV-1 (IIIB); test: microbe, parasite or virus in culture; assay type: cell-based; settings: Human immunodeficiency virus 1, IIIB, CCRF-CEM; CEM cells, syncytium formation, day four post infection; read-out: EC50 (ug/ml) HIV-1
Experimental endpoint: EC50

>>> measured_value("Cc1ccc(C)c(C(C)S(=O)(=O)c2cccc[n+]2[O-])c1 (centres unmarked)")
"≥ 100 µg/mL"
>>> measured_value("CCCCCCCC(c1cc(C)ccc1C)S(=O)(=O)c1cccc[n+]1[O-] (centres unmarked)")
"> 0.8 µg/mL"
>>> measured_value("CC(c1ccccc1)[S+]([O-])c1cccc[n+]1[O-] (centres unmarked)")
"> 0.8 µg/mL"
>>> measured_value("O=S(=O)(Cc1c2ccccc2cc2ccccc12)c1cccc[n+]1[O-]")
"> 0.8 µg/mL"
>>> measured_value("Cc1ccc(C)c(C[S+]([O-])c2cccc[n+]2[O-])c1C (centres unmarked)")
"> 0.8 µg/mL"
